Reference source for all entries: the supplement of paper PMC10883282

Field: standardised AUC. Provide a value for each of the compounds that follow.
# Tested on: KHOS-240S
# assay-comment: standardised AUC of viability dose-response curve (72 h) (fraction (0-1)); higher = less growth inhibition (more resistant)
Answers are plain numbers.

Here are 5 compounds together with their reported answers.
# compound, standardised AUC
rows = [
    ("Cc1cn(-c2cc(NC(=O)c3ccc(C)c(Nc4nccc(-c5cnccn5)n4)c3)cc(C(F)(F)F)c2)cn1 [RADOTINIB]", 0.988),
    ("C[C@@H](Oc1cc(-c2cnn(C3CCNCC3)c2)cnc1N)c1c(Cl)ccc(F)c1Cl [CRIZOTINIB]", 0.873),
    ("Cc1ccc(NC(=O)c2ccc(CN3CCN(C)CC3)cc2)cc1Nc1nccc(-c2cccnc2)n1 [IMATINIB]", 0.949),
    ("COc1cc(Nc2c(C#N)cnc3cc(OCCCN4CCN(C)CC4)c(OC)cc23)c(Cl)cc1Cl [BOSUTINIB]", 0.851),
    ("CNC(=O)c1cc(Oc2ccc(NC(=O)Nc3ccc(Cl)c(C(F)(F)F)c3)cc2)ccn1 [SORAFENIB]", 0.93),
]

Respectfully, I request standardised AUC for each entry included below.
1. CCCS(=O)(=O)N[C@H]1C[C@@H](N(C)c2ncnc3[nH]ccc23)C1 [ABROCITINIB]
2. Cc1c(F)cc(C(=O)NC2CC2)cc1-c1ccc(C(=O)NCC(C)(C)C)cn1 [LOSMAPIMOD]
3. CCCCCCCCCCCCCCCCCCOP(=O)([O-])OC1CC[N+](C)(C)CC1 [PERIFOSINE]

[0.989, 0.944, 0.983]

###

# Tested on: RD
# assay-comment: relative viability vs DMSO control (72 h) (fraction); higher = more viable cells
# applied-conditions: 10 µM
Criterion: relative viability strictly under 0.6. Met: yes (1). Not met: no (0).

For orientation, consider the following solved cases.
# record-smiles, label-class
data = [
    ("COc1cc2ncnc(Nc3cccc(Cl)c3F)c2cc1OC(=O)N1CCN(C)C[C@H]1C", "no (0)"),
    ("Cc1ccc(C(=O)OCc2ccc([C@@H](CN)C(=O)Nc3ccc4cnccc4c3)cc2)c(C)c1", "yes (1)"),
]

Note: attention shifts to another entry.
Say whether its relative viability is strictly beneath 0.6. Entry: COc1cc2ncnc(Nc3ccc(F)c(Cl)c3)c2cc1NC(=O)/C=C/CN1CCCCC1
yes (1)

###

# System: MES-SA
# assay-comment: relative viability vs DMSO control (72 h) (fraction); higher = more viable cells
# applied-conditions: 3.333 µM
Each entry falls into one class according to its relative viability; the ranges are one (below 0.4), two (0.4 to below 0.8), three (0.8 or more)

# record-smiles, label-class
rows = [
    ("COc1cc2c(Oc3ccc4[nH]c(C)cc4c3F)ccnc2cc1OCC1(N)CC1", "one"),
]

Note: attention shifts to another entry.
Which bin, given its relative viability, does C1=N/C2=N/c3ccc(OCCN4CCCC4)c(c3)COC/C=C/COCc3cccc(c3)C(=C1)N2 occupy?
one

###

# System: KHOS-240S
# assay-comment: relative viability vs DMSO control (72 h) (fraction); higher = more viable cells
# applied-conditions: 0.01372 µM
assay-endpoint: relative viability
Numbers only.

# record-smiles, relative viability
data = [
    ("Cc1ccc(C(=O)OCc2ccc([C@@H](CN)C(=O)Nc3ccc4cnccc4c3)cc2)c(C)c1", 1.01),
]

Respectfully, I request relative viability for each entry included below.
1. C[C@H]1Oc2cc(cnc2N)-c2c(nn(C)c2C#N)CN(C)C(=O)c2ccc(F)cc21
2. CN(C)C[C@@H]1CCn2cc(c3ccccc32)C2=C(C(=O)NC2=O)c2cn(c3ccccc23)CCO1
3. COc1cc2ncnc(Nc3cccc(Cl)c3F)c2cc1OC(=O)N1CCN(C)C[C@H]1C

1: 1.06; 2: 1.02; 3: 1.05
